The following compounds are shown together with reported pIC50 values.
- assayed-target: Indoleamine 2,3-dioxygenase 1 (Homo sapiens)
- Sequence (P14902 whole entry): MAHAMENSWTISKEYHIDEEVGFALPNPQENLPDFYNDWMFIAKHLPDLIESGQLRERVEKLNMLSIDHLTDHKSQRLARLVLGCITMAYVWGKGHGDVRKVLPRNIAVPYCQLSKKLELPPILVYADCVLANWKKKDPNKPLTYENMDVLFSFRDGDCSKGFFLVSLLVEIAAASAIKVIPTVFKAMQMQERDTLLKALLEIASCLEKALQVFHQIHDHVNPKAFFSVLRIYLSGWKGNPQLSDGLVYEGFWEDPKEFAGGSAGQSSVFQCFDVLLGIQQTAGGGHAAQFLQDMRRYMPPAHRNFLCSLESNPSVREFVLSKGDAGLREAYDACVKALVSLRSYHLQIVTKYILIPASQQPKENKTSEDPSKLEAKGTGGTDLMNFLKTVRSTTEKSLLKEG
- test-protocol: Inhibition of IDO1 in IFNgamma-stimulated human HeLa cells using tryptophan as substrate measured after 48 hrs
Please note pIC50 is a logarithmic value: minus log10 of concentration in mol/L. Answer with that number alone.

{"columns": ["record-smiles", "pIC50"],
 "data": [
  ["O=[N+]([O-])c1ccc(NCCNc2nonc2/C(=N/O)Nc2ccc(F)c(Br)c2)c2nonc12", 7.82]
]}

Now consider a different compound.
Task: Name the reported pIC50 value associated with the compound O=C(CCNc1ccc([N+](=O)[O-])c2nonc12)NCCNc1nonc1/C(=N/O)Nc1ccc(F)c(Br)c1
Output: 8.00

* * *

- assayed-target: Indoleamine 2,3-dioxygenase 1 (Homo sapiens)
- test-protocol: Inhibition of recombinant human IDO1 expressed in Escherichia coli BL21 (DE3) using tryptophan as substrate
assay-metric: pIC50
Please note pIC50 is a logarithmic value: minus log10 of concentration in mol/L. Answer with that number alone.

# example entries with known answers
{"columns": ["record-smiles", "pIC50"],
 "data": [
  ["O=C(CCNc1ccc([N+](=O)[O-])c2nonc12)NCCNc1nonc1/C(=N/O)Nc1ccc(F)c(Br)c1", 7.92],
  ["O=C(CNc1ccc([N+](=O)[O-])c2nonc12)NCCNc1nonc1/C(=N/O)Nc1ccc(F)c(Br)c1", 5.88]
]}

Now consider a different molecule.
Task: Name the reported pIC50 value associated with the molecule O=[N+]([O-])c1ccc(NCCNc2nonc2/C(=N/O)Nc2ccc(F)c(Br)c2)c2nonc12
Output: 7.55

# credit: ChEMBL document CHEMBL4732157
